Provide the recorded pKd for the entries that follow.
Study target: N-terminally FLAG-tagged PARP2 (amino acids 1-583) (Homo sapiens, UniProt Q9UGN5)
Construct: N-terminally FLAG-tagged PARP2 (amino acids 1-583)
Sequence (Q9UGN5 whole entry, the tested form may be a part): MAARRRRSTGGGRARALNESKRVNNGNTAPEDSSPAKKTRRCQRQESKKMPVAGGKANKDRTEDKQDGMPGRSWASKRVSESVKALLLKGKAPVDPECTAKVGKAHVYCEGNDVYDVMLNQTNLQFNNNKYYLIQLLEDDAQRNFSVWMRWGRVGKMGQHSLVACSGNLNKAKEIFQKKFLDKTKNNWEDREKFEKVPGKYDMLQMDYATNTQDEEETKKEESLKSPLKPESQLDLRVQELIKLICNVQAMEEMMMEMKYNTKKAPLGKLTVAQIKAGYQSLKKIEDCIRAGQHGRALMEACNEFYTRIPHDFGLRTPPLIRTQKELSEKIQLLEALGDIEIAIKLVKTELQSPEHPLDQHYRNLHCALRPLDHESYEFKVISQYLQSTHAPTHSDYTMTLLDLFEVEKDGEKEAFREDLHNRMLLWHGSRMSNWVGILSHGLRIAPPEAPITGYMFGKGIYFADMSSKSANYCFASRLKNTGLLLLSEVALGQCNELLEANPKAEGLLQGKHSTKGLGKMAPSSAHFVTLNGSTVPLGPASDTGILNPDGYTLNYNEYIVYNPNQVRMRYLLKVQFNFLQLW
Test protocol: PARP2 probe displacement HTRF assay
Assay type: binding
Run parameters: binned Kd, probe displacement HTRF
pKd: −log10 of the molar value.

**Q:** Consider the compound shown here: N#Cc1ccc(N2CCC(N3CCC(c4cc5cccc(F)c5c(=O)[nH]4)C3)CC2)c(Cl)c1 (single isomer, unassigned) [Compound 378b] What is its recorded pKd?
**A:** 5.00 to 6.00

**Q:** What measured pKd goes with CNC(=O)c1ccc(N2CCC(N3CCC(c4cc5ccc(F)cc5c(=O)[nH]4)C3)CC2)c(C#N)n1 (single isomer, unassigned) [Compound 396b] ?
**A:** 6.00 to 7.00

**Q:** Look up pKd for this compound: CCc1ccc(C2CCN(C3CCN(c4ccc(C#N)nc4)CC3)C2)[nH]c1=O (single isomer, unassigned) [Compound 326b]
**A:** 5.00 to 6.00

**Q:** Would you mind telling me what pKd value was observed for CNC(=O)c1ccc(N2CCC(N3CCC(c4cc5ccc(F)cc5c(=O)[nH]4)C3)CC2)cc1F (single isomer, unassigned) [Compound 270a] ?
**A:** 7.00 to 8.00

**Q:** Report pKd for CNC(=O)c1ccc(N2CCC(N3CCC(c4cc5c(C(F)(F)F)nn(C)c5c(=O)[nH]4)C3)CC2)cn1 (racemic) [Compound 392rac] please.
**A:** < 5.00

**Q:** Need pKd, item O=c1[nH]c(C2CCN(C3CCN(c4nccs4)CC3)C2)cc2ccccc12 (racemic) [Compound 254rac]
**A:** 5.00 to 6.00

**Q:** For the compound CCc1cnc(C23CC(C2)N(C2CCN(c4ccc(C(=O)NC)nc4)CC2)C3)[nH]c1=O [Compound 299] , what pKd is on record?
**A:** < 5.00

**Q:** Field request: pKd | item: CNC(=O)c1ccc(N2CCC(N3CCC(c4[nH]c(=O)c5ccccc5c4C(F)(F)F)C3)CC2)cn1 (single isomer, unassigned) [Compound 404a]
**A:** 5.00 to 6.00

**Q:** Any idea what pKd was measured for CC(=O)Nc1ccc(N2CCC(N3CCC(c4cc5ccccc5c(=O)[nH]4)C3)CC2)cn1 (single isomer, unassigned) [Compound 306b] ?
**A:** 6.00 to 7.00

**Q:** # get_value(readout='pKd', item= CNC(=O)c1ccc(N2CCC(N3CC4(c5nc6ccccc6c(=O)[nH]5)CC3C4)CC2)c(F)n1 [Compound 260] )
**A:** 5.00 to 6.00

**Q:** I am curious: what pKd value has been reported for O=c1[nH]c(C2CCN(C3CCN(c4ccc(OC(F)F)nc4)CC3)C2)cc2ccc(F)cc12 (single isomer, unassigned) [Compound 374b] ?
**A:** 7.00 to 8.00

**Q:** Request the reported pKd associated with CCc1ccc(C2CCN(C3CCN(c4ccc(C#N)cc4Cl)CC3)C2)[nH]c1=O (single isomer, unassigned) [Compound 377a]
**A:** < 5.00

**Q:** Can you look up the measured pKd of CNC(=O)c1ccc(N2CCC(N3CCC(c4cc5cc(OC)ccc5c(=O)[nH]4)C3)CC2)cn1 (racemic) [Compound 334rac] for me?
**A:** 5.00 to 6.00
